meta.source: paper PMC5216056

experiment: logD distribution coefficient
test context: distribution coefficient

| molecule | inequality sign | logD |
| --- | --- | --- |
| COc1ccc(C(=O)c2c(C)n(CCN3CCOCC3)c3cc(I)ccc23)cc1 | = | 3.82 |
| CCCC(C)(C)c1ccc2c(c1)OC(C)(C)[C@@H]1CC=C(C)C[C@@H]21 | > | 3 |
| Cc1c(C(=O)c2cccc3ccccc23)c2cccc3c2n1[C@H](CN1CCOCC1)CO3 | = | 3.67 |
| CN1CCCC[C@H]1Cn1cc(C(=O)c2cc([N+](=O)[O-])ccc2I)c2ccccc21 [(S)-AM1241] | = | 3.64 |
| CN1CCCC[C@@H]1Cn1cc(C(=O)c2cc([N+](=O)[O-])ccc2I)c2ccccc21 [(R)-AM1241] | = | 3.66 |
| CN1CCCCC1Cn1cc(C(=O)c2cc([N+](=O)[O-])ccc2I)c2ccccc21 (racemic) [(rac)-AM1241] | = | 3.66 |

====

study target: Human recombinant TRPV1 (Homo sapiens, UniProt Q8NER1)
Construct: expressed in transfected cells; host or cells: HEK293 (TRPV1-HEK-293, gift from John Davis, GlaxoSmithKline)
Sequence (Q8NER1 whole entry): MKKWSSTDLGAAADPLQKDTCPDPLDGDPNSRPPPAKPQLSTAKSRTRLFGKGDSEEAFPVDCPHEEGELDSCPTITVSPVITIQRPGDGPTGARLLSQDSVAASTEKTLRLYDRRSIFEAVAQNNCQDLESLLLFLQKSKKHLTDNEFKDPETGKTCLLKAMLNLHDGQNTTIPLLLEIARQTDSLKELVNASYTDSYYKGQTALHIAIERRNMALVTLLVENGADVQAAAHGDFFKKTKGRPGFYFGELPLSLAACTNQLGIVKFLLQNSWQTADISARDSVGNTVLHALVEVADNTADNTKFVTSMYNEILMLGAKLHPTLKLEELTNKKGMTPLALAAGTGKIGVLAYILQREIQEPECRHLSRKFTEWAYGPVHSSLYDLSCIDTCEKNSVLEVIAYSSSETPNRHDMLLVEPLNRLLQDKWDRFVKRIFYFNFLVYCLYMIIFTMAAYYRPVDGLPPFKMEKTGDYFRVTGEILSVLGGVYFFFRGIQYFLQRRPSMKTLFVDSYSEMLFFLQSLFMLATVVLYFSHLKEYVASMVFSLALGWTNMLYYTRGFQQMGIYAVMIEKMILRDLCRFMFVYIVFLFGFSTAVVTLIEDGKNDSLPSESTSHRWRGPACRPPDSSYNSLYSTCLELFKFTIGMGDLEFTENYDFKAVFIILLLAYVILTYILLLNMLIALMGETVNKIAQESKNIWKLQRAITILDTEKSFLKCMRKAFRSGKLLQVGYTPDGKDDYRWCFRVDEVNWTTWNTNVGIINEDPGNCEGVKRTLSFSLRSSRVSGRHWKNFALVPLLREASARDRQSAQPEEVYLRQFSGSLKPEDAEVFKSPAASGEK
experiment: cell-based
Assay type: cell-based
test context: TRPV1 IC50 for antagonism or desensitization
pIC50: −log10 of the molar value.

| given smiles | pIC50 |
| --- | --- |
| CCCCCCC(C)(C)c1cc(OC)c([C@@H]2C=C(CO)[C@@H]3C[C@H]2C3(C)C)c(OC)c1 | 4.16 |

====

study target: hCB2R (Homo sapiens)
Set-up: expressed in transfected cells; host or cells: Flp-In-293 (Invitrogen #R750-07), pcDNA5/FRT
test context: hCB2R
# pERK-GIRK ΔΔlogR annotations

| compound | study target | pERK-GIRK ΔΔlogR |
| --- | --- | --- |
| CCCCC/C=C\C/C=C\C/C=C\C/C=C\CCCC(=O)NCCO [Anandamide, N-arachidonoylethanolamine] | hCB2R (Homo sapiens) | 0.33 |
| CN1CCCCC1Cn1cc(C(=O)c2cc([N+](=O)[O-])ccc2I)c2ccccc21 (racemic) [(rac)-AM1241] | hCB2R (Homo sapiens) | 1.98 |
| CCCCC/C=C\C/C=C\C/C=C\C/C=C\CCCC(=O)OC(CO)CO [2-AG, 2-arachidonoyl glycerol] | hCB2R (Homo sapiens) | -1.2 |
| CN1CCCC[C@H]1Cn1cc(C(=O)c2cc([N+](=O)[O-])ccc2I)c2ccccc21 [(S)-AM1241] | hCB2R (Homo sapiens) | 0.68 |
| CN1CCCC[C@@H]1Cn1cc(C(=O)c2cc([N+](=O)[O-])ccc2I)c2ccccc21 [(R)-AM1241] | hCB2R (Homo sapiens) | 1.47 |
| CCCCCCC(C)(C)c1cc(OC)c(C2=C[C@H]3CC[C@]2(CO)C3(C)C)c(OC)c1 [HU910] | hCB2R (Homo sapiens) | -0.13 |
| CCCCCCC(C)(C)c1cc(OC)c([C@@H]2C=C(CO)[C@@H]3C[C@H]2C3(C)C)c(OC)c1 [HU308] | hCB2R (Homo sapiens) | 0.1 |

====

study target: mCB1R (Mus musculus, UniProt P47746)
Construct: from tissue; host or cells: brain of male C57BL/6J mice
Sequence (P47746 whole entry): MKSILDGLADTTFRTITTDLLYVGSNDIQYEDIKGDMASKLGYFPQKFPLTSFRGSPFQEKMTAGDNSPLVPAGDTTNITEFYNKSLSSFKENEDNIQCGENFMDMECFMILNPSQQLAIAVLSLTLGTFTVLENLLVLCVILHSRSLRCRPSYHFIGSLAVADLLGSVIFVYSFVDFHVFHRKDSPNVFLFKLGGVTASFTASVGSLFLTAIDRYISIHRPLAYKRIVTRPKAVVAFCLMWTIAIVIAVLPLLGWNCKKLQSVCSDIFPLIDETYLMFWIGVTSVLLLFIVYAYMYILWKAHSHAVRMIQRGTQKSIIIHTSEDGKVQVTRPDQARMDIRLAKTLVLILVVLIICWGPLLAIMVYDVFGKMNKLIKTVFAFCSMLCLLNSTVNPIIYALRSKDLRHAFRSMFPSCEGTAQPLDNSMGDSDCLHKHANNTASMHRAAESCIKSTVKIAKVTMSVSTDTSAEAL
experiment: biochemical
Format: binding
test context: mouse brain membranes
// label = Criterion met if pKi ± SEM mCB1R is not less than 6, otherwise Criterion not met

| molecule | assigned class |
| --- | --- |
| Cc1ccc2c(c1)Cc1c(C(=O)NN3CCCCC3)nn(-c3ccc(Cl)cc3Cl)c1-2 | Criterion met |
| COc1ccc(C(=O)c2c(C)n(CCN3CCOCC3)c3cc(I)ccc23)cc1 | Criterion not met |
| CN1CCCC[C@@H]1Cn1cc(C(=O)c2cc([N+](=O)[O-])ccc2I)c2ccccc21 [(R)-AM1241] | Criterion met |
| CN1CCCC[C@H]1Cn1cc(C(=O)c2cc([N+](=O)[O-])ccc2I)c2ccccc21 [(S)-AM1241] | Criterion met |

====

# β-AR-GTPγS bias factor (BF) annotations
study target: UniProtKB P34972
Design: expressed in transfected cells; host or cells: Flp-In-293 (Invitrogen #R750-07), pcDNA5/FRT
test context: hCB2R

| compound | β-AR-GTPγS bias factor (BF) |
| --- | --- |
| CCCCCCC(C)(C)c1cc(OC)c([C@@H]2C=C(CO)[C@@H]3C[C@H]2C3(C)C)c(OC)c1 [HU308] | 3.54 |
| CCCCC/C=C\C/C=C\C/C=C\C/C=C\CCCC(=O)NCCO [Anandamide, N-arachidonoylethanolamine] | 6.10 |
| CCCCCCC(C)(C)c1cc(OC)c(C2=C[C@H]3CC[C@]2(CO)C3(C)C)c(OC)c1 [HU910] | 4.71 |
| CCCCC/C=C\C/C=C\C/C=C\C/C=C\CCCC(=O)OC(CO)CO [2-AG, 2-arachidonoyl glycerol] | 11.27 |

====

# % inhibition PPARα (h) annotations
study target: PPARα (h) (Homo sapiens)
Construct: CEREP (contract assay)
Sequence (Q07869 1-468): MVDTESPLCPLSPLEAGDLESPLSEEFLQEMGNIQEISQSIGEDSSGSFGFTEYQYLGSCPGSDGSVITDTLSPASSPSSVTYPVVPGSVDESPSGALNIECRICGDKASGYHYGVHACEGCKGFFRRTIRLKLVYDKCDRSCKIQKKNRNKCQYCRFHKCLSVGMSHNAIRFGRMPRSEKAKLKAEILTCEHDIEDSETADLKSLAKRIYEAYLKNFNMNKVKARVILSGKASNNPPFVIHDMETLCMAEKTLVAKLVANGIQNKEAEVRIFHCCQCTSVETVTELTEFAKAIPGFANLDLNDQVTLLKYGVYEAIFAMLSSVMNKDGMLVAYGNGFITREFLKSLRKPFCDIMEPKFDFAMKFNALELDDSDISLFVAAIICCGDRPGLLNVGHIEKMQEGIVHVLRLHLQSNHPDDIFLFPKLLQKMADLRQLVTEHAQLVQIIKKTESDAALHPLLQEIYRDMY
experiment: CEREP panel
Type: binding
test context: 10 µM

| given smiles | study target | measure unit | % inhibition PPARα (h) |
| --- | --- | --- | --- |
| COc1ccc(C(=O)c2c(C)n(CCN3CCOCC3)c3cc(I)ccc23)cc1 | PPARα (h) (Homo sapiens) | % | -17 |
| Cc1ccc2c(c1)Cc1c(C(=O)NN3CCCCC3)nn(-c3ccc(Cl)cc3Cl)c1-2 | PPARα (h) (Homo sapiens) | % | -9 |
| CCCn1c(C)c(C(=O)c2cccc3ccccc23)c2ccccc21 | PPARα (h) (Homo sapiens) | % | -16 |

====

study target: mCB1R (Mus musculus)
Construct: from tissue; host or cells: brain of male C57BL/6J mice
experiment: biochemical
test context: pEC50 ± SEM cAMP mCB1R, mouse brain

| given smiles | study target | EC50 |
| --- | --- | --- |
| CCCCCCC(C)(C)c1cc(OC)c([C@@H]2C=C(CO)[C@@H]3C[C@H]2C3(C)C)c(OC)c1 | mCB1R (Mus musculus) | > 10 µM |

====

study target: hCB2R (Homo sapiens, UniProt P34972)
Sequence (P34972 whole entry): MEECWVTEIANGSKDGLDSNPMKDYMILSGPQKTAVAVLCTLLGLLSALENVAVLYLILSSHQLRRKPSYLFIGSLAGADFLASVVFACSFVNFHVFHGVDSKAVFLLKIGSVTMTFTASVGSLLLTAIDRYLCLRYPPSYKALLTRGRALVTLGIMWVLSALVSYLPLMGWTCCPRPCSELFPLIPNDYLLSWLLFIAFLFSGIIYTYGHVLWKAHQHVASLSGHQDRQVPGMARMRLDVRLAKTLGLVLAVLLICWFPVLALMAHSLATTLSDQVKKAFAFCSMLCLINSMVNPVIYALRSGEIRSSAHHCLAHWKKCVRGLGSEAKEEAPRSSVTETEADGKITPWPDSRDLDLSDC
Design: expressed in transfected cells; host or cells: Flp-In-293 (Invitrogen #R750-07), pcDNA5/FRT
test context: hCB2R
Please note: LogR pERK exactly at 8 is Not fulfilled. Only values below 8 get Fulfilled.

| compound | study target | assigned class |
| --- | --- | --- |
| CN1CCCCC1Cn1cc(C(=O)c2cc([N+](=O)[O-])ccc2I)c2ccccc21 (racemic) [(rac)-AM1241] | hCB2R (Homo sapiens, UniProt P34972) | Not fulfilled |
| CCCCCCC(C)(C)c1cc(OC)c([C@@H]2C=C(CO)[C@@H]3C[C@H]2C3(C)C)c(OC)c1 [HU308] | hCB2R (Homo sapiens, UniProt P34972) | Fulfilled |
| CCCCC/C=C\C/C=C\C/C=C\C/C=C\CCCC(=O)OC(CO)CO [2-AG, 2-arachidonoyl glycerol] | hCB2R (Homo sapiens, UniProt P34972) | Fulfilled |
| CN1CCCC[C@H]1Cn1cc(C(=O)c2cc([N+](=O)[O-])ccc2I)c2ccccc21 [(S)-AM1241] | hCB2R (Homo sapiens, UniProt P34972) | Fulfilled |
| CCCCC/C=C\C/C=C\C/C=C\C/C=C\CCCC(=O)NCCO [Anandamide, N-arachidonoylethanolamine] | hCB2R (Homo sapiens, UniProt P34972) | Fulfilled |
| CCCCCCC(C)(C)c1cc(OC)c(C2=C[C@H]3CC[C@]2(CO)C3(C)C)c(OC)c1 [HU910] | hCB2R (Homo sapiens, UniProt P34972) | Fulfilled |
